Assignment: determine reported TGI for the given molecules.
Test system: NCI-H522 lung
Test: NCI tumour cell line growth inhibition, 48 h

MOLECULE | EXPERIMENTAL_TARGET | TGI
COc1cc(C(=O)N2CCc3c([nH]c4c([N+](=O)[O-])c(OC)ccc34)C2C)cc(OC)c1OC (stereo unspecified) | NCI-H522 lung | > 100 µM

Go through the list and state TGI for each entry.
1. CN(C)P(=O)(Oc1occc1C(O)Cc1ccccc1)N(C)C (stereo unspecified)
2. CC(C)(C)C(=O)C(Cc1ccccc1)C(=O)C(C)(C)C
3. NC(=S)N/N=C/c1cc(-c2cccc(N)c2)ccn1
4. CC(=O)OCCOCNC(=S)N/N=C/c1ccc(Br)s1
5. COC(=O)c1cccc2cccc(C(=O)Nc3ccc(Cl)cc3)c12

[A]
["> 100 µM", "> 100 µM", "0.564 µM", "> 100 µM", "> 91 µM"]

Go through the list and state TGI for each entry.
1. c1ccc(-c2cnc(-c3ccc(-c4ncc(-c5ccccc5)o4)cc3)o2)cc1
2. COP(=O)(OC)C12CCOCCN1c1ccccc1C2=O (stereo unspecified)
3. CCC(=O)Nc1ccc(N=NN(C)C)cc1
4. COc1cc(C2C(C(=O)Nc3cc(F)c(F)cc3F)=C(C)NC(C)=C2C(=O)Nc2cc(F)c(F)cc2F)ccc1O
5. CC(C(=O)n1c2ccccc2c2ccccc21)N(c1ccccc1)c1ccccc1 (stereo unspecified)

[A]
1: > 100 µM; 2: > 100 µM; 3: > 100 µM; 4: 36.3 µM; 5: 6.48 µM
